Target: recombinant human 15-PGDH (Homo sapiens, UniProt P15428)
Construct: purchased R&D Systems
Sequence (P15428 1-266): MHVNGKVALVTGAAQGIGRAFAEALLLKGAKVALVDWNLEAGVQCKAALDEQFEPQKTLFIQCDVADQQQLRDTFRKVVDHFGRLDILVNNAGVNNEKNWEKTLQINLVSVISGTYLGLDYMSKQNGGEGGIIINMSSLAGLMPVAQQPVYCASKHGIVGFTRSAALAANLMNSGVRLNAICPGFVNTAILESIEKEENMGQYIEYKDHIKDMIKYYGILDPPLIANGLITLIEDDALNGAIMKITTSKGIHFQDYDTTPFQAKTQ
Test: 15-PGDH enzyme inhibition test
Assay type: biochemical
Settings: 4 nM recombinant human 15-PGDH, 30 μM PGE2, 1 mM NAD+, 60 minutes after starting the reaction; read-out: IC50 Value

{"columns": ["Compound", "IC50"],
 "data": [
  ["O=C(O)c1ccc(N2CCOc3cc(C(=O)N4CCCCC4)ccc32)nc1", "< 10 nM"],
  ["Cn1nc2cc(N3CCOc4cc(C(=O)N5CCC[C@@H]5C(N)=O)cnc43)ccn2c1=O", "> 100 nM"],
  ["COCn1nc2cc(N3CCCc4cc(C(=O)N5CC[C@@H](C)C5)cnc43)ccn2c1=O", "< 10 nM"],
  ["CCN1Cc2cc(N3CCCc4cc(C(=O)N5CCC(F)(F)C(C)C5)cnc43)ccc2C1=O (centres unmarked)", "< 10 nM"],
  ["O=C(c1cnc2c(c1)CCCN2c1ccc(Cl)cc1)N1CCCCC1", "10 to 100 nM"],
  ["Cn1nc2cc(N3CCOc4cc(C(=O)N5CCc6ccccc65)cnc43)ccn2c1=O", "10 to 100 nM"],
  ["C[C@H]1CCCN1C(=O)c1cnc2c(c1)OCCN2c1ccn2c(=O)n(C)nc2c1", "< 10 nM"],
  ["CN1Cc2cc(N3CCOc4cc(C(=O)N5CCC[C@H](C(F)(F)F)C5)cnc43)ccc2C1=O", "< 10 nM"]
]}
